property.name: melting point

# compound, assay.value
records = [
    ("Oc1cc(Br)nnc1-c1ccc(Cl)cc1", "262 to 264 °C"),
    ("CCOCCn1cc2c(C3C(=O)Nc4ccc(Br)cc43)nc(NCC(C)O)nc2n1 (stereo unspecified)", "298 to 300 °C"),
    ("N#Cc1ccc2[nH]c(O)c(-c3ccc(CN4CCOCC4)cn3)c2c1", "228 to 230 °C"),
    ("O=c1[nH]c2ncc(-c3ccc(-n4cccn4)cc3)nc2n1CCC1CCOCC1", "294 to 296 °C"),
    ("CCCCC1Oc2ccc(NC(C)=O)cc2C1O (stereo unspecified)", "134 to 137 °C"),
    ("CCCCCCCOc1ccc2c(c1)Nc1cccc(S(=O)(=O)N(C)C)c1S2", "160 to 162 °C"),
    ("COc1ccccc1-c1cncc(OC2SCC(O)C(O)C2O)c1 (stereo unspecified)", "209 to 211 °C"),
    ("COc1ccc(COc2cccnc2N)c(F)c1", "135 to 138 °C"),
    ("CN(C)CCCc1ccc(C(=O)/C=C/c2ccc(Cl)cc2)cc1", "83 to 86 °C"),
    ("Cn1c(C(F)(F)F)cc(=O)n(-c2cc(OC(=O)CCl)c(Cl)cc2F)c1=O", "89 to 92 °C"),
    ("C[C@H](c1ccccc1)n1c(O)nc2c(Cl)nc3ccccc3c21", "227 to 229 °C"),
]

###

// reported melting point for each item listed

# compound, melting point
measured = [
    ("Cc1noc(NS(=O)(=O)c2ccccc2-c2cccs2)c1C", "112 to 115 °C"),
    ("CCCc1c2ccccc2c(O)c2c(=O)cc(C(=O)OCC)oc12", "148 to 150 °C"),
    ("CCCc1c(C(=O)NCc2ccc3c(Br)c(OCC(=O)O)ccc3c2)cnn1-c1ccccc1", "140 to 145 °C"),
    ("CC(C)(C)NC(=NC#N)Nc1cc(F)cc(Cl)c1", "156 to 157 °C"),
    ("CC(O)(c1ccc(F)cc1)c1ccc(-c2ccncc2)cc1 (stereo unspecified)", "166 to 170 °C"),
    ("COc1cc(-c2ccccc2C)cc2oc(=O)c(C)c(C)c12", "145 °C"),
    ("CC(=O)SCC1CCCCCCC(C(=O)N2C(=O)OCC2Cc2ccccc2)NC1=O (stereo unspecified)", "65 to 66 °C"),
    ("Cc1oc(-c2ccccc2)nc1COc1cc(COc2ncccc2C=O)on1", "90 to 91 °C"),
    ("CC1=C(C(=O)N(c2ccccc2)C2CCCCCC(F)C2)CCO1 (stereo unspecified)", "91 °C"),
    ("CC(=O)OC1CSC(O)C(OC(C)=O)C1OC(C)=O (stereo unspecified)", "115 °C"),
    ("CC(=O)Oc1cc(OC(C)=O)c(C)c(C(=O)OCC(Cl)(Cl)Cl)c1C", "127 to 128 °C"),
    ("O=C(Cl)Cc1ccc(-c2ccc(F)cc2F)c(F)c1", "70 to 73 °C"),
    ("CCCCN(CCCC)CCCCCCOc1ccc([C@H]2c3ccc(OCc4ccccc4)cc3OC[C@H]2c2ccccc2)cc1 (racemic)", "72 to 73.5 °C"),
    ("CC(C)(C)c1cc(-c2nnc(N)o2)cc(C(C)(C)C)c1O", "244 to 245 °C"),
    ("CC(C)C(OCCc1ccc(-c2ccc(Cl)cc2)cc1)C(=O)O (stereo unspecified)", "91 to 92 °C"),
    ("CCOC(=O)c1cc(-c2cn(Cc3ccccc3C#N)c(=O)n2-c2ccc(F)cc2)ccn1", "164 °C"),
    ("O=[N+]([O-])c1ccccc1-c1cnoc1", "51 to 54 °C"),
    ("Cc1c(N)cc([N+](=O)[O-])c(N)c1C", "159 °C"),
    ("CC(=C1SCCCS1)c1cccc(O)c1", "63 to 64 °C"),
    ("Nc1ccc(CCCCC(=O)O)nc1", "80 to 82 °C"),
    ("COC(=O)c1sc(C(C)(C)C)cc1NC(=O)Nc1ccc(C)cc1", "109 to 111 °C"),
]
